assay: protein stability index of a GFP-peptide fusion (yeast GPS) (PSI 1-4); higher = more stable; sorted into four equal gates, so the index is relative within each strain; details: pdr5∆
Reported protein stability index values follow for various sequences
recorded.endpoint: protein stability index

residue.codes: VVVAETSPEKKDGGDKP [YAR002W/NUP60]
reading: 3.23

residue.codes: KTCQWYSEHLKPYDINV [DIS3]
reading: 2.95

residue.codes: LLERTREIHNEAESQLR [FAS2]
reading: 2

residue.codes: VLIDLLNWFRTTNMNVN [RGR1]
reading: 1.66

residue.codes: ICGYTRKEGPTIYYVDS [PRE2]
reading: 3.24

residue.codes: ATSQYLKQDLKKISSFK [YGL172W/NUP49]
reading: 2.56

residue.codes: NVVEADLKRFVDESLLS [QCR2]
reading: 3.43

residue.codes: GNMCRGGRMFAPTKTWR [RPL4A]
reading: 2.61

residue.codes: LLTNFHGMDFTTDKLRS [RPS1A]
reading: 3.02

residue.codes: LDKLNCAINSKSRGSDL [RRP6]
reading: 2.93

residue.codes: MEMIENRTMDGKPVSLP [FAS1]
reading: 3.24

residue.codes: VTGASQFQRLAPSLTVP [PRE2]
reading: 1.25

residue.codes: LHKLELKAKNQEEEGEL [DSN1]
reading: 3.29

residue.codes: TQPKATSTGTTIVGVKF [PUP1]
reading: 3.52

residue.codes: SLQRSKSSFVKESAVIS [SMC1]
reading: 2.27

residue.codes: QQNIKFRRDFLLREYDI [YJL039C/NUP192]
reading: 2.57

residue.codes: ILEDTATMSVFLQRIDF [RRI2]
reading: 2.53

residue.codes: LCQKSPVMADLNGGLQF [FAS2]
reading: 2.65

residue.codes: VFGASDKQAEGTPLFTF [YOR098C/NUP1]
reading: 2.86

residue.codes: KPSFSFPGKPVDVQAPT [YOR098C/NUP1]
reading: 2.88

residue.codes: VPYVVTHDGRTIRYPDP [RPS4A]
reading: 3.16

residue.codes: TNDRLNREAATKEVESN [DIS3]
reading: 2.58

residue.codes: DIYSHEYKVITSLQGTY [YMR129W/POM152]
reading: 2.43

residue.codes: DIILGQNIKAPSVKRQK [PRP8]
reading: 2.35

residue.codes: GYDKSGAHLLEFQPSGN [PRE5]
reading: 3.22

residue.codes: QMIELNRQICLVQKTVQ [GRR1]
reading: 2.56

residue.codes: YLAENPDPNFENSIGYN [PRP8]
reading: 3.08

residue.codes: QTAVTCESCSTILCTPT [RPS27A]
reading: 2.05

residue.codes: NADLDVKDELMFSPLVD [RPO21]
reading: 3.08

residue.codes: LDGELDFDDFLKLGLVE [RET1]
reading: 3.08

residue.codes: NVSDEQLSNWQKIRNSE [ITC1]
reading: 3.2

residue.codes: KLLTPQDMEAAKEVYKI [GAL11]
reading: 3.33

residue.codes: AEEAIVNAMRVLYYRDA [PRE4]
reading: 3.33

residue.codes: NVNLDDYPDDSGWTPFH [NAS6]
reading: 2.91

residue.codes: ENSFYKKEASKTKWDRK [POP1]
reading: 2.37

residue.codes: QIMQNPTHYKIPAWFLN [RPS18A]
reading: 1.99

residue.codes: FLLVPSKQVQVSQQPLS [ECM29]
reading: 1.92

residue.codes: VQCPTVIKLAKYPDYFP [ARP9]
reading: 1.81

residue.codes: GRETILSNFNADINLEE [SIR3]
reading: 3.17

residue.codes: KAKRQINSGTNSANGSS [SSN3]
reading: 2.68

residue.codes: NDDSSSMNATMRNFSKQ [YDL088C/ASM4]
reading: 3.14

residue.codes: GAISAVAATNTPIIFIG [SRP54]
reading: 3.42

residue.codes: VYKFMSLAKSSALWSSR [ECM29]
reading: 1.97

Values were extracted from the supplement of paper PMC9732359.
